Reference source: patent US20260297042A1

Give measured IC50 for each item. Keep answers brief.
target entity: WEE1 (Homo sapiens, UniProt P30291)
Construct: purchased Thermo Fisher PR7373A
Sequence (P30291 whole entry): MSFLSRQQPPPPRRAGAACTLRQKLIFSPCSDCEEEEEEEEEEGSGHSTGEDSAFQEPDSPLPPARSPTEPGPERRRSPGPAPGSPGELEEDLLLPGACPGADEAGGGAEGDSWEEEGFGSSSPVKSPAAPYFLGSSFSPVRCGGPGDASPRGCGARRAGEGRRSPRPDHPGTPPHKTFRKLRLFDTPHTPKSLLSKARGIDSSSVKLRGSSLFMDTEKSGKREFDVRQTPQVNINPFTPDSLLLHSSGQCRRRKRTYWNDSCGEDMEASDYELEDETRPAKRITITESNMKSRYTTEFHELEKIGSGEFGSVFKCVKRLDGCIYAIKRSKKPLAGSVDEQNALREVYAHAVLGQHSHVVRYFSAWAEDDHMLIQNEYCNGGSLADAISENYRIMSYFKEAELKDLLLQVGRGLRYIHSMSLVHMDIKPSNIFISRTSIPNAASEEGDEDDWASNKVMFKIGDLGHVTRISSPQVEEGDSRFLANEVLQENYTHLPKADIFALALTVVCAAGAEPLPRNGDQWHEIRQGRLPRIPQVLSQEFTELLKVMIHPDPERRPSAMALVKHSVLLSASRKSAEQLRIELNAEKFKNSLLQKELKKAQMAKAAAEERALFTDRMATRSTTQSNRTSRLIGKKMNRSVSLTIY
measurement protocol: Selectivity versus WEE1 assay (ADP-Glo enzymatic assay)
Type: biochemical
condition context: WEE1 15 nM; ADP-Glo; banded values
Counter-ions that a name gives are not always drawn.

Exercise: Output measured IC50 for this item: Cc1cn(CC(=O)N(C)C2CCC2)nc1Nc1ncc(C(=O)Nc2c(C)ccc(O)c2C)s1 [BAA-595]
Key: 1 to 11 µM

Exercise: Output measured IC50 for this item: Cc1ccc(O)c(C)c1NC(=O)c1cnc(Nc2ncccc2C2CC2)s1 [BAA-412]
Key: > 11 µM

Exercise: Output measured IC50 for this item: Cc1ccc(O)c(C)c1NC(=O)c1cnc(Nc2ncc(F)cc2F)s1 [BAA-413]
Key: > 11 µM

Exercise: Output measured IC50 for this item: Cc1ccc(O)c(C)c1NC(=O)c1cnc(Nc2ncc(C(F)(F)F)o2)s1 [BAA-437]
Key: > 11 µM

Exercise: Output measured IC50 for this item: Cc1cn(CC(=O)N(C)CC(F)(F)F)nc1Nc1ncc(C(=O)Nc2c(C)ccc(O)c2C)s1 [BAA-514]
Key: 1 to 11 µM

Exercise: Output measured IC50 for this item: Cc1ccc(O)c(C)c1NC(=O)c1cnc(Nc2ccc3c(c2)NC(=O)CO3)s1 [BAA-515]
Key: 1 to 11 µM

Exercise: Output measured IC50 for this item: CCN(CCC#N)C(=O)Cn1cc(C)c(Nc2ncc(C(=O)Nc3c(C)ccc(O)c3C)s2)n1 [BAA-532]
Key: 1 to 11 µM

Exercise: Output measured IC50 for this item: CCN(C(=O)Cn1cc(C)c(Nc2ncc(C(=O)Nc3c(C)ccc(O)c3C)s2)n1)C1CC1 [BAA-551]
Key: 1 to 11 µM

Exercise: Output measured IC50 for this item: Cc1ccc(O)c(C)c1NC(=O)c1cnc(Nc2ccc3ncccc3n2)s1 [BAA-596]
Key: > 11 µM

Exercise: Output measured IC50 for this item: COC[C@@H]1CCCN1C(=O)Cn1cc(C)c(Nc2ncc(C(=O)Nc3c(C)ccc(O)c3C)s2)n1 [BAA-606]
Key: 1 to 11 µM

Exercise: Output measured IC50 for this item: Cc1ccc(O)c(C)c1NC(=O)c1cnc(Nc2cccc(N(C)C)n2)s1 [BAA-417]
Key: > 11 µM

Exercise: Output measured IC50 for this item: Cc1ccc(O)c(C)c1NC(=O)c1cnc(Nc2cc(C)n(C3CCS(=O)(=O)C3)n2)s1 (stereo not drawn) [BAA-564]
Key: 1 to 11 µM

Exercise: Output measured IC50 for this item: CCN(CCS(C)(=O)=O)C(=O)Cn1cc(C)c(Nc2ncc(C(=O)Nc3c(C)ccc(O)c3C)s2)n1 [BAA-555]
Key: 1 to 11 µM

Exercise: Output measured IC50 for this item: Cc1ccc(O)c(C)c1NC(=O)c1cnc(Nc2cnn(C)c2)s1 [BAA-536, hydrochloride]
Key: 1 to 11 µM

Exercise: Output measured IC50 for this item: Cc1c(O)ccc(Cl)c1NC(=O)c1cnc(Nc2ccn(C)n2)s1 [BAA-474]
Key: > 11 µM

Exercise: Output measured IC50 for this item: Cc1ccc(O)c(C)c1NC(=O)c1cnc(Nc2cccc3ccoc23)s1 [BAA-531]
Key: > 11 µM

Exercise: Output measured IC50 for this item: Cc1cn(CC(=O)N(C)CCO)nc1Nc1ncc(C(=O)Nc2c(C)ccc(O)c2C)s1 [BAA-524]
Key: > 11 µM

Exercise: Output measured IC50 for this item: Cc1cn(CC(=O)N(C)C2CC2)nc1Nc1ncc(C(=O)Nc2c(C)ccc(O)c2C)s1 [BAA-554]
Key: 1 to 11 µM
